Assay: Toxicity liver stage against HepG2, at 10uM
Assay type: cell-based
Parameters: test concentration 10 uM, cell line HepG2-A16-CD81EGFP
Settings: human, HepG2-A16-CD81EGFP cells; read-out: INHIBITION
recordedMetric: cytotoxicity at 10 µM

{"molecule": "CCCNCc1ccc(OCc2ccc3c(c2)OCCO3)cc1", "recordedMetric": "cytotoxicity at 10 µM", "result": "3.49%"}
{"molecule": "Cc1ccc(C(=O)NC2CCOc3ccccc32)cc1S(C)(=O)=O (configuration not stated)", "recordedMetric": "cytotoxicity at 10 µM", "result": "-3.83%"}
{"molecule": "CC(C)(C)c1nc(CN2CCCC2Cn2cncn2)no1 (configuration not stated)", "recordedMetric": "cytotoxicity at 10 µM", "result": "1.93%"}
{"molecule": "CN(CCOc1cccc(F)c1)CC(=O)Nc1ccncc1", "recordedMetric": "cytotoxicity at 10 µM", "result": "9.16%"}
{"molecule": "Cc1ncc(CNCC2CCCN2c2cccnn2)s1 (configuration not stated)", "recordedMetric": "cytotoxicity at 10 µM", "result": "1.97%"}
{"molecule": "Cc1ccc(S(=O)(=O)N2CCN(CCCO)CC2)s1", "recordedMetric": "cytotoxicity at 10 µM", "result": "-9.12%"}
{"molecule": "Cc1ccc2cccc(C(=O)N3CCN(c4cccnn4)CC3)c2n1", "recordedMetric": "cytotoxicity at 10 µM", "result": "1.91%"}
{"molecule": "CC(NC(=O)Cn1cccn1)c1cccnc1 (configuration not stated)", "recordedMetric": "cytotoxicity at 10 µM", "result": "15.9%"}
{"molecule": "NC(=O)CCN1C(=O)CC(Cc2ccc(F)cc2)C1=O (configuration not stated)", "recordedMetric": "cytotoxicity at 10 µM", "result": "-4.89%"}
{"molecule": "NC(=O)c1ccc(N2CCCCC2)c(NC(=O)c2ccc(F)cc2F)c1", "recordedMetric": "cytotoxicity at 10 µM", "result": "-0.0472%"}
{"molecule": "C[C@H]1CN(C(=O)c2cccc(F)c2Cl)CCN1S(C)(=O)=O", "recordedMetric": "cytotoxicity at 10 µM", "result": "-13.5%"}
{"molecule": "NC(=O)C1CCCN1C1CCN(C(=O)c2ccc3c(c2)OCO3)CC1 (configuration not stated)", "recordedMetric": "cytotoxicity at 10 µM", "result": "1.59%"}
